system: BT-549; assay: NCI tumour cell line growth inhibition, 48 h
Calls of active or inactive are those of the source. No stated cut-off is given here; in the data, active = GI50 up to about 1.1 µM and inactive = higher.
Labels: 1 = active, 0 = inactive

molecule="COC(=O)c1cc(C)ccc1CC(Cc1cccc(C)c1)C(=O)OC (stereo unspecified)" targetofassay=BT-549 grouplabel=0
molecule=CN(C)CCNc1ccc2nnn3c4ccc(Cl)cc4c(=O)c1c23 targetofassay=BT-549 grouplabel=0
molecule=O=[N+]([O-])/C(C(Cl)=C(Cl)Cl)=C(/Nc1ccccc1)Sc1ccccc1 targetofassay=BT-549 grouplabel=0
molecule=CO[C@H]1O[C@@H]2CO[C@@H](c3ccccc3)O[C@H]2C[C@]12CCC/C=C\CO2 targetofassay=BT-549 grouplabel=0
molecule="O=C(Nc1ccn(C2CCC(CO)O2)c(=O)n1)c1ccccc1 (stereo unspecified)" targetofassay=BT-549 grouplabel=0
molecule="Cc1c(N2C(=O)CS(=O)(=O)C2c2cccc(Oc3ccccc3)c2)c(=O)n(-c2ccccc2)n1C (stereo unspecified)" targetofassay=BT-549 grouplabel=0
molecule=OCc1ccn2c1[C@@H](O)CC2 targetofassay=BT-549 grouplabel=0
molecule="CCOC(=O)C1=C(C)N(c2ccc(C)cc2)C2(O)C=CC(O)=C3C(=O)c4ccccc4C(=O)C312 (stereo unspecified)" targetofassay=BT-549 grouplabel=0
molecule=N#Cc1nc(-c2ccc(-c3nc(C#N)c(N)o3)cc2)oc1N targetofassay=BT-549 grouplabel=0
molecule=CCCCCCN(CCCCCC)C(=S)N/N=C(\C)c1ccccn1 targetofassay=BT-549 grouplabel=0
molecule="COC1=CC(=O)c2c(cc(COP(=O)(OCC3OC(n4cc(F)c(=O)[nH]c4=O)CC3O)N(C)CCCCCl)n2C)C1=O (stereo unspecified)" targetofassay=BT-549 grouplabel=0
molecule=C(=C\c1cc[n+](CCc2ccccc2)cc1)/c1ccccc1 targetofassay=BT-549 grouplabel=0
molecule=c1csc(-c2ccc(-c3cccs3)c3nsnc23)c1 targetofassay=BT-549 grouplabel=0
molecule=CO/N=C(/C(=O)OC)c1ccccc1COc1ccccc1C(F)(F)F targetofassay=BT-549 grouplabel=0
molecule=CCCCCCCCCC(=O)N[C@@H](c1ccco1)[C@@H](O)C(=O)O[C@H]1C[C@@]2(O)[C@@H](OC(=O)c3ccccc3)[C@@H]3[C@]4(OC(C)=O)CO[C@@H]4C[C@H](O)[C@@]3(C)C(=O)[C@H](OC(C)=O)C(=C1C)C2(C)C targetofassay=BT-549 grouplabel=1
molecule="CCOC(=O)CNC(=O)C(CSCC1C(=O)Nc2ccccc21)NC(=O)CCC(N)C(=O)OCC (stereo unspecified)" targetofassay=BT-549 grouplabel=0
molecule="O=c1onc2n1-c1cc(Cl)ccc1C(=S)N1CSCC21 (stereo unspecified)" targetofassay=BT-549 grouplabel=0
molecule=Cc1c(C2=C(Br)C(=O)N(C)C2=O)c(=O)n(C)c(=O)n1C targetofassay=BT-549 grouplabel=0
molecule="CC1=NN(C(=O)c2ccc(Cl)cc2)C(=O)C1/N=N/c1ccc(S(=O)(=O)Nc2ncccn2)cc1 (stereo unspecified)" targetofassay=BT-549 grouplabel=0
molecule=CO/N=C1/c2sccc2[C@H](NC(=O)CNC(=O)OC(C)(C)C)[C@@H]1O targetofassay=BT-549 grouplabel=0
molecule="CCCOC(=O)c1cc(O)c(O)c(O)c1 [PROPYL GALLATE]" targetofassay=BT-549 grouplabel=0
